Tested on: Bacteroides stercoris
Assay: growth AUC relative to DMSO control (median of replicates) (fraction); higher = more growth (less inhibition), active = hit call of the paper
Settings: 20 µM; 24 h
READOUT_TYPE: growth AUC
Please give only the number in your answer, with no unit.

compound=Clc1cc(Cl)c(Cl)cc1Cl result=1.14
compound=CC(=O)O.CC(=O)O.CC(=O)O.NC(N)=NCCCCCCCCNCCCCCCCCN=C(N)N result=0.0269

Next compound, please.
Tell us which growth AUC value is on record for CC(C)(C)N(NC(=O)c1ccc(Cl)cc1)C(=O)c1ccccc1
1.02

---

In this section, each of the compounds is paired with its reported growth AUC.
Test system: Escherichia coli ED1a
Experiment: growth AUC relative to DMSO control (median of replicates) (fraction); higher = more growth (less inhibition), active = hit call of the paper
Conditions: 20 µM; 24 h
The answer should be written as a number, with no unit following it.

Read off the recorded growth AUC for CP(=O)(O)CC(=O)O
0.984

Look up and report measured growth AUC for this entry: CC(C)N(C(=O)COc1nnc(C(F)(F)F)s1)c1ccc(F)cc1
1.03

Answer with the recorded growth AUC for the compound listed here: C=CCN=C=S
1.01

Identify measured growth AUC associated with CCOP(=S)(OCC)Oc1ccc(Cl)cc1Cl
1.01

Using the record for COc1cc(Cl)c(OC)cc1Cl , state its measured growth AUC.
1.03

For the compound COP(=O)(OC)SCn1c(=O)oc2cc(Cl)cnc21 , give its measured growth AUC value.
1.01

Given the compound CCOC(=O)c1cn2nc(OP(=S)(OCC)OCC)cc2nc1C , write its reported growth AUC.
0.981

Look up and state reported growth AUC for CC(Oc1ccc(Oc2ncc(C(F)(F)F)cc2Cl)cc1)C(=O)O (stereo not given)
1.02

---

growth AUC: recorded values
Test system: Clostridium difficile
Assay: growth AUC relative to DMSO control (median of replicates) (fraction); higher = more growth (less inhibition), active = hit call of the paper
Settings: 20 µM; 24 h
Write no unit; give the number alone.

compound="CCCCC(C#N)(Cn1cncn1)c1ccc(Cl)cc1 (stereo unspecified)" result=0.985
compound="C=CC1(C)OC(=O)N(c2cc(Cl)cc(Cl)c2)C1=O (stereo unspecified)" result=1.02

Please list growth AUC recorded for the compound COP(=S)(OC)Oc1cc(Cl)c(Cl)cc1Cl
1.02

# return recorded growth AUC for input CC1(C)C(C(=O)OC(C#N)c2cccc(Oc3ccccc3)c2)C1(C)C (stereo unspecified)
1.01

Supply reported growth AUC belonging to this compound: OCC(O)CCl (stereo unspecified)
1.01

Indicate the recorded growth AUC value for this compound: O=S(=O)(c1ccccc1)c1ccccc1
1.02

Return growth AUC (reported value) for this compound: C=C(C)CN(CC)c1c([N+](=O)[O-])cc(C(F)(F)F)cc1[N+](=O)[O-]
1.04

Return reported growth AUC. Input compound: COC(=O)NC(=S)Nc1ccccc1NC(=S)NC(=O)OC
0.951

Give the reported growth AUC for this compound. COP(=S)(Oc1cc(Cl)c(Br)cc1Cl)c1ccccc1 (stereo unspecified)
1.03

---

System: Bifidobacterium longum subsp. longum
Assay: growth AUC relative to DMSO control (median of replicates) (fraction); higher = more growth (less inhibition), active = hit call of the paper
Conditions: 20 µM; 24 h
READOUT_TYPE: growth AUC
Keep the answer to the number alone.

compound=CN(C)C(CSC(N)=O)CSC(N)=O.Cl readout_type="growth AUC" result=1.05
compound=N#Cc1nn(-c2c(Cl)cc(C(F)(F)F)cc2Cl)c(N)c1C(F)(F)F readout_type="growth AUC" result=0.858
compound="ClC1=C(Cl)C2(Cl)[C@H]3[C@H]4O[C@H]4[C@H](Cl)[C@H]3C1(Cl)C2(Cl)Cl (single isomer, unassigned; isomer a)" readout_type="growth AUC" result=1.07

State, in one line, measured growth AUC of CN(C)C(=S)[S-].CN(C)C(=S)[S-].[Zn+2]
0.884

Look up and state reported growth AUC for Cc1ccc(NC(=O)N(C)C)cc1Cl
0.827

Kindly indicate its recorded growth AUC. Item: Oc1cc(Cl)c(Cl)cc1Cl
1.02

State its growth AUC for this compound: CCOC(=O)c1cn2nc(OP(=S)(OCC)OCC)cc2nc1C
1.05

For the compound O=c1[nH]c(Cl)c(Cl)cc1Cl , give its measured growth AUC value.
0.981

Report measured growth AUC; entry is CC(Oc1ccc(Oc2ccc(C(F)(F)F)cn2)cc1)C(=O)O (centres undefined)
1.05

Look up growth AUC of COC(=O)NCc1cc(/C(C)=N\OCc2cccc(C)n2)ccc1Cl and report it.
1.03

Determine from records and report growth AUC for CCOC1Oc2ccc(OS(C)(=O)=O)cc2C1(C)C (centres undefined)
1.01

Note down growth AUC recorded for CCOP(=S)(OCC)Oc1cc(Cl)c(Br)cc1Cl
0.954

Let me know recorded growth AUC for CC(C)Oc1cc(-n2nc(C(C)(C)C)oc2=O)c(Cl)cc1Cl , thanks.
0.962

Specify reported growth AUC for the compound shown: Oc1cccc2cccnc12
1.14

For the compound c1cc2ccc3cccc4ccc(c1)c2c34 , give its reported growth AUC.
0.948

Provide only the value of recorded growth AUC for CNC(=O)Oc1ccccc1OC(C)C
0.996

Tell me its growth AUC given COP(=S)(NC(C)C)Oc1ccccc1C(=O)OC(C)C (centres undefined) as the entry.
1.02

Consider the compound COP(=O)(OC)Oc1ccc(S(C)=O)c(C)c1 (centres undefined) . State its measured growth AUC.
1

Report growth AUC, nothing else, for this compound: CSc1nnc(C(C)(C)C)c(=O)n1N
1.09

// Input: COP(N)(=S)Oc1ccccc1C(=O)OC(C)C (centres undefined) . Output its growth AUC only.
1.03

Give the reported growth AUC for this compound. CN(C)C(=O)C(c1ccccc1)c1ccccc1
0.947

Return reported growth AUC. Input compound: c1coc(-c2nc3ccccc3[nH]2)c1
1.04

Supply recorded growth AUC for CC(C)N(C(=O)SCC(Cl)=C(Cl)Cl)C(C)C here.
1.01

Return reported growth AUC. Input compound: CC1(C)[C@H](C(=O)O[C@H](C#N)c2cccc(Oc3ccccc3)c2)[C@@H]1C=C(Br)Br
0.843
